Sourced from the supplement of paper PMC4862054

- Tested on: MDA-MB-468
- Experiment: normalised viability (% of control), CellTiter-Blue; higher = more viable cells (about 100 = DMSO control)
- Condition description: 10 nM; incubation time: 72 h
Measured metric: normalised viability (%)
One number for each entry, in %.

C=CCNC1=C2C[C@@H](C)C[C@H](OC)[C@H](O)[C@@H](C)/C=C(\C)[C@H](OC(N)=O)[C@@H](OC)/C=C\C=C(/C)C(=O)NC(=CC1=O)C2=O [Tanespimycin]	113

Please give normalised viability, item by item, for the list that follows.
1. OC[C@H]1O[C@@H](n2cnc3c2N=CNC[C@H]3O)C[C@@H]1O [Pentostatin]
2. COc1cccc2cc(-c3nc([C@H]4CC[C@H](C(=O)O)CC4)n4ncnc(N)c34)[nH]c12 [OSI-027]

[115, 87.8]

Retrieve normalised viability measured for S=c1[nH]cnc2nc[nH]c12 [Mercaptopurine] and print it. 108

* * *

- Test system: MCF-10A
- Experiment: drug sensitivity score (DSS), CellTox Green (DSS (AUC-based score)); higher = stronger drug effect (viability inhibition or cytotoxicity); extreme values may be limits of the assay
- Condition description: incubation time: 72 h
Measured metric: drug sensitivity score
One number for each entry.

C=CC[C@@H]1/C=C(\C)C[C@H](C)C[C@H](OC)[C@H]2O[C@@](O)(C(=O)C(=O)N3CCCC[C@H]3C(=O)O[C@H](/C(C)=C/[C@@H]3CC[C@@H](O)[C@H](OC)C3)[C@H](C)[C@@H](O)CC1=O)[C@H](C)C[C@@H]2OC	0.439
CC(=O)O[C@]1(C(C)=O)CC[C@H]2[C@@H]3C=C(C)C4=CC(=O)CC[C@]4(C)[C@H]3CC[C@@]21C [Megestrol acetate]	0
Clc1ccc(C(c2ccccc2Cl)C(Cl)Cl)cc1 (stereo not drawn)	0
C=CCNC1=C2C[C@@H](C)C[C@H](OC)[C@H](O)[C@@H](C)/C=C(\C)[C@H](OC(N)=O)[C@@H](OC)/C=C\C=C(/C)C(=O)NC(=CC1=O)C2=O	15.9

Please give drug sensitivity score, item by item, for the list that follows.
1. CS(=O)(=O)c1ccc(C(=O)Nc2ccc(Cl)c(-c3ccccn3)c2)c(Cl)c1
2. Cc1ccc(F)c(NC(=O)Nc2ccc(-c3cccc4[nH]nc(N)c34)cc2)c1
3. OC[C@H]1O[C@@H](n2cnc3c2N=CNC[C@H]3O)C[C@@H]1O
4. C[C@]1(c2nc3c(C(N)=O)cccc3[nH]2)CCCN1

1: 0; 2: 0; 3: 0; 4: 0

* * *

- Test system: MDA-MB-468
- Experiment: normalised viability (% of control), CellTiter-Blue; higher = more viable cells (about 100 = DMSO control)
- Condition description: 1000 nM; incubation time: 72 h
Entries whose normalised viability is below 60% take Satisfied; entries at or above 60% take Not satisfied.

State whether 60% exceeds normalised viability recorded for CN1CC[C@H](c2c(O)cc(O)c3c(=O)cc(-c4ccccc4Cl)oc23)[C@H](O)C1 . Satisfied

* * *

- Test system: CAL-148
- Experiment: normalised response (% of control), CellTiter-Glo; higher = more viable cells (100 = DMSO, 0 = benzethonium chloride kill control)
- Condition description: incubation time: 72 h
Give measured normalised response for each item. Keep answers brief.
One number for each entry, in %.

C=CCNC1=C2C[C@@H](C)C[C@H](OC)[C@H](O)[C@@H](C)/C=C(\C)[C@H](OC(N)=O)[C@@H](OC)/C=C\C=C(/C)C(=O)NC(=CC1=O)C2=O [Tanespimycin] (10000 nM)	25

Please give normalised response, item by item, for the list that follows.
1. Nc1nc(Cl)nc2c1ncn2[C@H]1C[C@H](O)[C@@H](CO)O1 [Cladribine] (1000 nM)
2. CN(C)C/C=C/C(=O)Nc1cc2c(Nc3ccc(F)c(Cl)c3)ncnc2cc1O[C@H]1CCOC1 [Afatinib] (1000 nM)
3. O=C(c1ccc(C(=O)N2CCC(N3CCCC3)CC2)c(Nc2ccccc2)c1)N1CCC(N2CCCC2)CC1 [UNC1215] (30000 nM)

1. 93.6
2. 78.6
3. 93.8

Please give normalised response, item by item, for the list that follows.
1. Clc1ccc(C(c2ccccc2Cl)C(Cl)Cl)cc1 (configuration not stated) [Mitotane] (10000 nM)
2. CCN1CCN(c2ccc(Nc3cc(N(C)C(=O)Nc4c(Cl)c(OC)cc(OC)c4Cl)ncn3)cc2)CC1 [NVP-BGJ398] (1000 nM)
3. Cc1ccc(F)c(NC(=O)Nc2ccc(-c3cccc4[nH]nc(N)c34)cc2)c1 [Linifanib] (1000 nM)

1: 99.1; 2: 96.5; 3: 118
